Entries and their Papp at 18 hours, 50 µM values follow.
# TEST_DESCRIPTION: PAMPA (parallel artificial membrane permeability assay)
# Type: in vitro ADME
# EXPERIMENTAL_SETUP: PAMPA; membrane permeation rate (Pe); 50 mM MOPSO buffer pH 6.5 with 5.0% glycocholic acid, 37° C., 18 hours; read-out: iPAMPA Pe
Positions of bridges follow the written chain, without caps; N, C: chain ends. Non-standard residues stand in square brackets, D forms with d. Residues, ends and D or L forms follow the SMILES beside them. *: point of attachment. Phe(4-CF3) = N[C@@H](Cc1ccc(C(F)(F)F)cc1)C(=O)O; NMeF = CN[C@@H](Cc1ccccc1)C(=O)O; NMeL = CN[C@@H](CC(C)C)C(=O)O; NMeV = CN[C@H](C(=O)O)C(C)C; NMeA = CN[C@@H](C)C(=O)O; Piperidide = C1CCN(*)CC1; β3hA = C[C@H](N)CC(=O)O
Field format: number, assumed ×10⁻⁶ cm/s, no unit text.

CC(C)C[C@@H]1NC(=O)[C@H](C)NC(=O)C[C@H](C)NC(=O)[C@H](C(C)C)N(C)C(=O)[C@H](Cc2ccc(C(F)(F)F)cc2)NC(=O)[C@H](CC(C)C)N(C)C(=O)[C@H]([C@@H](C)O)NC(=O)[C@H](Cc2ccc(C(F)(F)F)cc2)NC(=O)[C@H](C)N(C)C(=O)CNC(=O)[C@H](CC(C)C)N(C)C(=O)[C@H](C)N(C)C1=O [DP-814] (cyclo(AL[NMeA][NMeL]G[NMeA][Phe(4-CF3)]T[NMeL][Phe(4-CF3)][NMeV][β3hA]))    57

q: # lookup: Papp at 18 hours, 50 µM of CC(C)C[C@H]1C(=O)N(C)[C@@H](C)C(=O)N[C@H](C(=O)N2CCCCC2)CC(=O)N(C)[C@@H](C)C(=O)N(C)[C@@H](C)C(=O)N[C@@H](C)C(=O)N(C)[C@@H](C)C(=O)N(C)[C@@H](CC(C)C)C(=O)N(C)[C@@H](Cc2ccccc2)C(=O)N[C@@H]([C@@H](C)O)C(=O)N(C)[C@@H](C)C(=O)N1C [DP-480] ([NMeA][NMeA]A[NMeA][NMeL][NMeF]T[NMeA][NMeL][NMeA]D-Piperidide; lactam N-11)
a: 6.6

* * *

# TEST_DESCRIPTION: Mouse PK test of peptides (intravenous and oral administration)
# EXPERIMENTAL_SETUP: male, C57BL/6J, in vivo, po, 20 mg/kg
Positions of bridges follow the written chain, without caps; N, C: chain ends. Non-standard residues stand in square brackets, D forms with d. Residues, ends and D or L forms follow the SMILES beside them. *: point of attachment. NMeF = CN[C@@H](Cc1ccccc1)C(=O)O; NMeI = CC[C@H](C)[C@H](NC)C(=O)O; NMeL = CN[C@@H](CC(C)C)C(=O)O; NMeA = CN[C@@H](C)C(=O)O; Piperidide = C1CCN(*)CC1; NPrGly = CCCNCC(=O)O; Sar = CNCC(=O)O; tBu = CC(C)(C)*
OBSERVABLE: AUC (ng·h/mL)
Return type: number; implicit unit ng·h/mL.

CC[C@H](C)[C@H](NC(=O)[C@@H]1CCCN1C(=O)[C@@H]1CC(=O)N[C@@H](C)C(=O)N[C@@H](CC(C)C)C(=O)N(C)[C@@H]([C@@H](C)CC)C(=O)N[C@@H](C(C)C)C(=O)N(C)[C@@H](Cc2ccccc2)C(=O)N[C@@H](CC(C)C)C(=O)N(C)[C@@H](Cc2ccccc2)C(=O)N1)C(=O)N1CCCCC1 [DP-965] (AL[NMeI]V[NMeF]L[NMeF]DPI-Piperidide; lactam N-8)    13700
CC(C)C[C@@H]1NC(=O)[C@H](Cc2ccccc2)N(C)C(=O)[C@H](Cc2ccccc2)N(C)C(=O)[C@H](CC(C)C)NC(=O)[C@H](C)N(C)C(=O)[C@H]([C@@H](C)O)NC(=O)[C@H](C)N(C)C(=O)C[C@@H](C(=O)N2CCCCC2)NC(=O)[C@H](CC(C)C)N(C)C1=O [DP-125] ([NMeA]T[NMeA]L[NMeF][NMeF]L[NMeL]D-Piperidide; lactam N-9)    12100
CCCN1CC(=O)N(C)[C@@H](CC(C)C)C(=O)N[C@@H]([C@@H](C)O)C(=O)N(C)[C@@H](C)C(=O)N(C)[C@@H](CC(C)C)C(=O)N(C)[C@@H]([C@@H](C)CC)C(=O)N[C@@H](COC(C)(C)C)C(=O)N[C@H](C(=O)N2CCCCC2)CC(=O)N(C)[C@@H](C)C(=O)N(C)[C@@H](Cc2ccccc2)C1=O [DP-540] ([NMeA][NMeF][NPrGly][NMeL]T[NMeA][NMeL][NMeI]S(tBu)D-Piperidide; lactam N-10)    9800

q: Please report the recorded AUC for CC[C@H](C)[C@H]1C(=O)N[C@H](C(=O)N2CCCCC2)CC(=O)N[C@H](C(C)C)C(=O)N(C)[C@@H](Cc2ccccc2)C(=O)N(C)[C@@H](CC(C)C)C(=O)N[C@@H]([C@@H](C)O)C(=O)N(C)CC(=O)N(C)[C@@H](CC(C)C)C(=O)N[C@@H](COC(C)(C)C)C(=O)N1C [DP-265] ([dV][NMeF][NMeL]T[Sar][NMeL]S(tBu)[NMeI]D-Piperidide; lactam N-9) .
a: 5120
